# experiment notes: chemical genetic growth profiling, strain panel (AID 1159580);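 further: tested at 20 µM; growth read once vehicle control cultures reached saturation at 30 °C; lower values mean less growth of the strain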
# study conditions: S. cerevisiae deletion strains, growth OD, locus YPL051W, strain arl3
The whole screen tested about 5,500 compounds, of which about 2,000 (36%) were called active. Inconclusive results (about 18%) are left out. No stated cut-off is given here; in the data, active means normalized growth mostly below about 0.91 (no sharp cut-off); inconclusive means no clear call, values can overlap the other calls; inactive means mostly above about 0.92. The list shows a part of the results.
Write down one outcome, taken from active, inactive

Answer briefly: the call reported for CNC(C)(C)Cc1ccccc1 in this assay. inactive

What is the recorded call for this molecule in the test? CC1=C(C(=O)O)N2C(=O)[C@@H](NC(=O)[C@@H](N)c3ccc(O)cc3)[C@H]2SC1 inactive

Name the outcome recorded for NC(=NCCCCCCN=C(N)N=C(N)Nc1ccc(Cl)cc1)N=C(N)Nc1ccc(Cl)cc1 in the assay. active

Hi, sorry to bother you, what did the test record for O=C(N[C@@H](CO)[C@H](O)c1ccc([N+](=O)[O-])cc1)C(Cl)Cl ? inactive

// param item: Cc1cc(O)c2c(c1)C(=O)c1cccc(O)c1C2=O ; yields the recorded call active

---
Given CN1CCN(C2=Nc3cc(Cl)ccc3Nc3ccccc32)CC1 , state the outcome it received in this test. inactive
